src = PubChem BioAssay (NCI)

# Tested on: HL-60(TB) leukemia
# ASSAY: NCI tumour cell line growth inhibition, 48 h; in the data active = GI50 below about 0.43 µM; inactive = the rest
Response enum: active, inactive

Hi team, can someone confirm the assay call for NC(N)=N/N=C/c1c(-c2ccsc2)nc2sccn12 ?
inactive

Please state the recorded outcome for this compound: C#CCOc1cccc(-c2ncc3cc(NC(=O)CCl)ccc3n2)c1
inactive

What did the test return for CCCCC#CC1=C(Br)C(=O)OC1 ?
active

GET /call?item= O=C(Nc1ccc(Nc2ccncc2)cc1)c1ccc([N+](=O)[O-])cc1 returns the recorded outcome of this test.
inactive

Hey, what did the test say about Cc1ccnc2[nH]c(-c3ccc4ccccc4c3)cc(=O)c12 ?
active

# outcome recorded in this test, key = Cc1ccc(SC2c3ccc(C)cc3Oc3nc(N)c(C#N)c(N)c32)cc1 (configuration not stated)
inactive

For COc1cc(Nc2ncccc2C(=O)NCc2cn(Cc3cccc(Oc4ccccc4)c3)nn2)cc(OC)c1 , which call appears in the assay record?
inactive

###

# Tested on: HCT-15 colon
# ASSAY: NCI tumour cell line growth inhibition, 48 h; in the data active = GI50 below about 0.43 µM; inactive = the rest
Give your call using only these classes: active, inactive

What was the test verdict on COC(=O)c1ccc2c(c1)nc(NC(=O)c1ccccc1)n2CCCc1ccccc1 ?
inactive

How did this test come out for N#Cc1c(N)nc(N2CCOCC2)c(C#N)c1-c1ccncc1 ?
inactive

Dear colleague, could you share the recorded outcome for CC[As](CC)SC[C@H](C)C(=O)N1CCC[C@H]1C(=O)O when you have a moment?
active

Dear colleague, could you share the recorded outcome for CC/C=C\C[C@H](O)C/C=C1/C(=O)C(Cl)=C[C@@H]1C/C=C\CCCC(=O)OC when you have a moment?
active

Assay result, entry S=C(Nc1ccc(Cl)cc1)Nc1ccc(-c2nc3ccccc3s2)cc1 — outcome?
inactive

I would be grateful if you could indicate the recorded call for Nc1nn2cc(F)cnc2c1C(=O)Nc1cncc(F)c1N1CCC(C(=O)N2CCN(C3COC3)CC2)CC1 .
active

Check the results log: what was the call for CC1=C(C(=O)Nc2ccc(F)c(Cl)c2)C(c2ccccc2O)NC(=S)N1 (stereo unspecified) ?
inactive

Given COc1cc(OCc2cccc(-c3ccc(C(O)c4nccs4)cc3)c2C)cc(OC)c1C=O (stereo unspecified) , state the outcome it received in this test.
inactive

Name the outcome recorded for NC(=S)N/N=C/C(=O)O in the assay.
inactive

Please share the test call associated with CCCCC#CC1=C(Br)C(=O)OC1 .
inactive

Given COc1ccc(/C=C\[N+](=O)[O-])cc1OC , state the outcome it received in this test.
inactive

###

# Tested on: LOX IMVI melanoma
# ASSAY: NCI tumour cell line growth inhibition, 48 h
OBSERVABLE: TGI

Sample CN1CCN(C2CCN(C(=O)Nc3cc(Oc4ccc(NC(=O)C5(C(=O)Nc6ccc(F)cc6)CC5)c(F)c4)ccn3)CC2)CC1 — what was its TGI?
> 10 µM

Given the entry O=C1Nc2cccc(Cl)c2/C1=C\c1c(Cl)nc2n1CCS2 , report its measured TGI.
> 100 µM

For CCCCOC(=O)CNC(=O)OC/C=C/C#CC#C/C=C/COC(=O)NCC(=O)OCCCC , what is its reported TGI?
> 10 µM

Query: TGI; subject: BrC1=C(Br)C2(SCCS2)[C@H]2C[C@@H]1c1ccccc12
> 100 µM

Find the recorded TGI belonging to COc1cc2c(cc1OC)C(CC1=C(c3ccccc3)CN3CCc4cc(OC)c(OC)cc4C3C1)NCC2 (stereo not given) and report it.
33.6 µM

###

# System: CCRF-CEM leukemia
# ASSAY: NCI tumour cell line growth inhibition, 48 h
Provide the recorded TGI for the entries that follow.

Which TGI is listed for O=C1/C(=C/c2ccc(Br)s2)NC(=S)N1c1ccccc1 ?
> 100 µM

# get_value(readout='TGI', item= c1ccc(-c2nnc(-c3ccccn3)s2)nc1 )
> 100 µM

Name the recorded TGI for O=C1c2cccc3c2C(=O)c2c(cccc21)OCCOCCOCCOCCO3 .
> 100 µM

Please look up its TGI: CC(=O)Nc1sc(Br)cc1S(=O)(=O)c1ccc(Cl)cc1
> 100 µM

Given the entry C#CCOc1cccc(-c2ncc3cc(NC(=O)CCl)ccc3n2)c1 , report its measured TGI.
0.994 µM

Looking for the measured TGI of CCOC(=O)C1=CN(C)C=C(C(=O)OCC)C1c1cc(Br)c(OCC)c(OC)c1 , can you help?
> 100 µM

Any idea what its TGI is? The compound is N=C(N)C1CN(CCc2c[nH]c3ccccc23)C(=O)NC1=O (centres undefined)
> 100 µM

Need TGI of COc1cc(C(=O)N2CCN(C=O)C2=S)cc(OC)c1OC , thanks.
49 µM

Data request, read-out TGI, for Cc1ccc(/C=N/Nc2cc(C)c3cccc(C)c3n2)s1
> 100 µM

Would you kindly share the measured TGI for C=CCc1c(O)c2c(c3oc(=O)cc(C)c13)CC(C)O2 (centres undefined) ?
> 100 µM

Endpoint output: TGI of C=CCn1c(N)c(C#N)c(C#N)c1-c1ccccc1 . Value?
> 100 µM

Name the recorded TGI for CC1(C)OC(C(=O)Nc2cc3c4ccccc4ccc3c3ccccc23)C(C(=O)N2CCCCC2)O1 (centres undefined) .
> 100 µM

Give the measured TGI of Cc1cn2c(=O)c3ncn(C4OC(CO)C(O)C4O)c3n(C)c2n1 (centres undefined) .
> 100 µM

Which TGI is listed for COC(=O)c1ccc(/C=C/c2cc(O)ccc2O)cc1 ?
0.719 µM

# lookup: TGI of O=C1COc2cccnc2N1CCCCO
> 100 µM

Name the reported TGI value associated with the compound Nc1c(C(=O)O)nnc2ccc(Cl)cc12
> 100 µM

Report TGI for Brc1ccc2[nH]cc(-c3csc(-c4c[nH]c5ccccc45)n3)c2c1 please.
5.89 µM

Name the recorded TGI for O=C1c2ccccc2C(=O)N1CCn1ccc(NC(c2ccccc2)(c2ccccc2)c2ccccc2)nc1=O .
59.3 µM

Which TGI is reported for this compound? O=c1sc2ccccc2n1CC1CS1 (centres undefined)
> 100 µM

I have this compound here, CCOc1ncn(-c2ccc(NC(=S)Nc3ncccn3)cc2)n1 , and I need its recorded TGI.
59.1 µM

Could you tell me which TGI is on file for CCN(CC)CCC(CNc1ccnc2cc(Cl)ccc12)c1ccc(Cl)cc1 (centres undefined) ?
6.29 µM

For O=C(O)CCCc1nc2c(n1Cc1ccccc1)C(=O)c1ccccc1C2=O , what is its reported TGI?
43.8 µM

I would be grateful if you could share the reported TGI for CC1(C)/C(=N\NC(N)=O)C2CCC1C2 (centres undefined) .
> 100 µM

Param item = O=[N+]([O-])C[C@@]12O[C@]3(O)C4C5CC(C6C5C3C61)C42 (some centres undefined) ; retrieve measured TGI.
> 100 µM

Any idea what TGI was measured for COc1cc(C2c3cc4c(cc3OC(N3CCCCC3)C2C)OCO4)cc(OC)c1O (centres undefined) ?
25.1 µM

Which TGI reading was recorded for the compound COc1cc(OC)cc(Oc2nc3ccccc3nc2C(F)(F)F)c1 ?
> 100 µM

Which value of TGI has been reported for Cc1c2n(c(=O)[nH]c1=O)C1OC(CO)C(O2)C1O (centres undefined) in the records?
> 100 µM

Which TGI value is on record for Nc1ccc2c(c1)C(=O)N1CCC[C@H]1C(=O)N2 ?
20.5 µM

Returns the measured TGI for the input compound. Input: O=[N+]([O-])c1ccc2[nH]c(=S)[nH]c(=S)c2c1
> 100 µM

Entry CO/N=C(/C)c1cccc(Nc2cc(-n3nnc4ccccc43)nc3ccccc23)c1 : reported TGI = ?
> 100 µM

What does the record list as TGI for Cc1[nH]c(=O)nc2nc3ccc(Cl)cc3c(NCCNCCO)c12 ?
28.1 µM

What value of TGI has been recorded for this entry: CC1=NN(c2nc(N)nc(/C(C#N)=C\c3ccc([N+](=O)[O-])s3)n2)C(C)(C)C1
0.0942 µM

What measured TGI goes with C/C=C/C(CC(O)(C(F)(F)F)C(F)(F)F)=N/NC(N)=S ?
> 10 µM

State the recorded TGI for this entry: CN=C(n1ccnc1)n1ccnc1
> 100 µM

Please report the recorded TGI for CC1(C)N=C(N)N=C(N)N1c1ccc(CCCCc2ccc(Cl)cc2S(=O)(=O)F)c(Cl)c1 .
8.16 µM

Any idea what its TGI is? The compound is COC(=O)C1c2cc3c(cc2C(OC2OC(C)C(OC)C(C)(OC)C2OC)CC1(C)O)C(=O)c1c(O)cc2c(c1C3=O)OC1OC2(C)C(O)C([N+](C)(C)[O-])C1O (centres undefined)
0.921 µM

Report TGI for N#CN/C(N)=N/CO please.
> 100 µM

What does the data say about its TGI? Entry: O=c1[nH]nnc2c1sc1ncccc12
> 100 µM

So what does the record say about TGI for Cc1n(Cc2ccccc2)c2c([n+]1C)C(=O)c1ccccc1C2=O ?
> 100 µM

Would you mind telling me what TGI value was observed for CCN(CC)Cc1ccc(C(=S)Nc2ccc(Cl)cc2)s1 ?
34.1 µM

// TGI lookup, key: CCN(CC)CCCN1CCc2c([nH]c3ccccc23)C1c1cccnc1 (centres undefined)
> 100 µM

What measured TGI goes with c1ccc2cc(-c3cc4ccccc4s3)ccc2c1 ?
> 100 µM

Recorded TGI of CC(C)C1=CC23CCC4C(C)(C(=O)O)CCCC4(C)C2CC1C1C(=O)N(c2ccc(Cc4ccc(N5C(=O)C6C7CC8C9(C)CCCC(C)(C(=O)O)C9CCC8(C=C7C(C)C)C6C5=O)cc4)cc2)C(=O)C13 (centres undefined) , please.
38.5 µM

GET /values?readout=TGI&item= COC(=O)COc1ccccc1/C=C1\N=C(c2ccccc2)N(c2cc(C(F)(F)F)ccc2Cl)C1=O
74.4 µM
